- TGT: 17β-HSD10 (Homo sapiens, UniProt Q99714)
- Construct: Histev (histidine tag with TEV site) (N, cleaved yes); made in house; host or cells: E. coli BL21-CodonPlus
- Sequence (Q99714 1-261): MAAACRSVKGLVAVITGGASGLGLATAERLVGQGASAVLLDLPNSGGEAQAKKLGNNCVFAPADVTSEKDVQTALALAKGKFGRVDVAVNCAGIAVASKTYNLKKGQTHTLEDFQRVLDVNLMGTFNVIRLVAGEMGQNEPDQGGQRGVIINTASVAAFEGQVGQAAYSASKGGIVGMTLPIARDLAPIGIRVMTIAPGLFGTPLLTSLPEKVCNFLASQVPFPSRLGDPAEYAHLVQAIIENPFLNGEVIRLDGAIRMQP
- METHOD_DESCRIPTION: 17β-HSD10 (ABAD) enzyme inhibition assay, NADH oxidation read at 340 nm (primary screen and dose response)
- Type: biochemical
- ASSAY_CONTEXT: recombinant 17βHSD10 enzyme assay
REPORTED_METRIC: Max. Effect (%)
// return numeric value only (unit: %, not printed)

[Q] Query the reported Max. Effect (%) for 17β-HSD10 (Homo sapiens, UniProt Q99714); item: CC(C)CN(C(=O)c1ccccc1F)c1cccc(N(C)Cc2cn(C)cn2)c1
[A] 67

[Q] Query the reported Max. Effect (%) for 17β-HSD10 (Homo sapiens, UniProt Q99714); item: CC(C)CN(C(=O)c1ccc[nH]c1=O)c1cccc(N(C)Cc2c[nH]cn2)c1
[A] 30

[Q] Query the reported Max. Effect (%) for 17β-HSD10 (Homo sapiens, UniProt Q99714); item: Cc1ccccc1C(=O)N(CC(C)C)c1cccc(N(C)Cc2c[nH]cn2)c1
[A] 96

[Q] Query the reported Max. Effect (%) for 17β-HSD10 (Homo sapiens, UniProt Q99714); item: O=C(c1[nH]ncc1Cl)N1CCC[C@H]1c1ccccc1
[A] 20.8

[Q] Query the reported Max. Effect (%) for 17β-HSD10 (Homo sapiens, UniProt Q99714); item: CC(C)CN(C(=O)c1ccccc1F)c1cccc(N(C)Cc2cc[nH]n2)n1
[A] 47

[Q] Query the reported Max. Effect (%) for 17β-HSD10 (Homo sapiens, UniProt Q99714); item: CC(C)CN(C(=O)c1ccccc1F)c1cccc(-n2cnnc2)c1
[A] 4

[Q] Query the reported Max. Effect (%) for 17β-HSD10 (Homo sapiens, UniProt Q99714); item: CC(C)CN(C(=O)c1ccccc1F)c1cncc(N(C)Cc2c[nH]cn2)c1
[A] 20

[Q] Query the reported Max. Effect (%) for 17β-HSD10 (Homo sapiens, UniProt Q99714); item: Cc1ccsc1C(=O)N1CCC[C@H]1c1ccccc1-c1ccc(N2CCOCC2)cc1
[A] 91

[Q] Query the reported Max. Effect (%) for 17β-HSD10 (Homo sapiens, UniProt Q99714); item: COc1cccc(-c2ccccc2[C@@H]2CCCN2C(=O)c2[nH]ncc2Cl)c1 (single isomer, unassigned) [ESC1002756]
[A] 24

[Q] Query the reported Max. Effect (%) for 17β-HSD10 (Homo sapiens, UniProt Q99714); item: Cc1ccsc1C(=O)N1CCC[C@H]1c1ccccc1-c1ccc(C(=O)N(C)C)cc1
[A] 96

[Q] Query the reported Max. Effect (%) for 17β-HSD10 (Homo sapiens, UniProt Q99714); item: CC(=O)CN(CC(C)=O)c1cccc(N(CC(C)C)C(=O)c2ccccc2F)c1
[A] −3

[Q] Query the reported Max. Effect (%) for 17β-HSD10 (Homo sapiens, UniProt Q99714); item: Cc1ccsc1C(=O)N1CCC[C@H]1c1ccccc1-c1ccccc1Cl [ESC1002324]
[A] 99

[Q] Query the reported Max. Effect (%) for 17β-HSD10 (Homo sapiens, UniProt Q99714); item: CC(C)CN(C(=O)c1ccccc1F)c1cccc(N(C)Cc2ccn[nH]2)c1 [ESC1002206]
[A] 79

[Q] Query the reported Max. Effect (%) for 17β-HSD10 (Homo sapiens, UniProt Q99714); item: CC(C)CN(C(=O)C1CCCCC1)c1cccc(N(C)Cc2cnc[nH]2)c1
[A] 99

[Q] Query the reported Max. Effect (%) for 17β-HSD10 (Homo sapiens, UniProt Q99714); item: O=C(c1ccon1)N1CCC[C@H]1c1ccccc1
[A] 27.5

[Q] Query the reported Max. Effect (%) for 17β-HSD10 (Homo sapiens, UniProt Q99714); item: CCN(C(=O)c1ccccc1F)c1cccc2c1ncc(=O)n2Cc1cnc[nH]1
[A] 4.8

[Q] Query the reported Max. Effect (%) for 17β-HSD10 (Homo sapiens, UniProt Q99714); item: COc1cccc(-c2ccccc2[C@@H]2CCCN2C(=O)c2ncc[nH]2)c1 (racemic)
[A] 75

[Q] Query the reported Max. Effect (%) for 17β-HSD10 (Homo sapiens, UniProt Q99714); item: COc1cccc(C(=O)N(CC(C)C)c2cccc(N(C)Cc3cnc[nH]3)c2)c1
[A] 92

[Q] Query the reported Max. Effect (%) for 17β-HSD10 (Homo sapiens, UniProt Q99714); item: COc1ccc(C(=O)N(CC(C)C)c2cccc(N(C)Cc3c[nH]cn3)c2)c(F)c1
[A] 98

[Q] Query the reported Max. Effect (%) for 17β-HSD10 (Homo sapiens, UniProt Q99714); item: Cc1cn[nH]c1C(=O)N1CCC[C@H]1c1ccccc1
[A] 26.5

[Q] Query the reported Max. Effect (%) for 17β-HSD10 (Homo sapiens, UniProt Q99714); item: COc1cccc(-c2ccccc2[C@@H]2CCCN2C(=O)c2[nH]ncc2Cl)c1 (racemic) [ESC1002626]
[A] 95

[Q] Query the reported Max. Effect (%) for 17β-HSD10 (Homo sapiens, UniProt Q99714); item: CC(C)CN(C(=O)c1ccccc1F)c1cccc(N(C)CC#N)c1
[A] 39

[Q] Query the reported Max. Effect (%) for 17β-HSD10 (Homo sapiens, UniProt Q99714); item: COc1cccc(-c2ccccc2[C@H]2CCCN2C(=O)C2CCN(C)CC2)c1
[A] 2

[Q] Query the reported Max. Effect (%) for 17β-HSD10 (Homo sapiens, UniProt Q99714); item: COCCN(C(=O)c1ccccc1F)c1cccc(N(C)Cc2c[nH]cn2)c1
[A] 74

[Q] Query the reported Max. Effect (%) for 17β-HSD10 (Homo sapiens, UniProt Q99714); item: O=C(c1sccc1Cl)N1CCC[C@H]1c1ccccc1-c1ccc(F)c(O)c1 (single isomer, unassigned) [ESC1002838]
[A] 99

[Q] Query the reported Max. Effect (%) for 17β-HSD10 (Homo sapiens, UniProt Q99714); item: O=C(c1sccc1Cl)N1CCC[C@H]1c1ccccc1-c1ccc(F)c(O)c1 (single isomer, unassigned) [ESC1002839]
[A] 85

[Q] Query the reported Max. Effect (%) for 17β-HSD10 (Homo sapiens, UniProt Q99714); item: O=C(c1ncco1)N1CCC[C@H]1c1ccccc1
[A] 26.6

[Q] Query the reported Max. Effect (%) for 17β-HSD10 (Homo sapiens, UniProt Q99714); item: COc1cccc(-c2ccccc2[C@@H]2CCCN2C(=O)c2[nH]ncc2Cl)c1 (single isomer, unassigned) [ESC1002757]
[A] 94

[Q] Query the reported Max. Effect (%) for 17β-HSD10 (Homo sapiens, UniProt Q99714); item: O=C(c1sccc1Cl)N1CCC[C@H]1c1ccccc1-c1cc(O)ccc1F (single isomer, unassigned) [ESC1002843]
[A] 70

[Q] Query the reported Max. Effect (%) for 17β-HSD10 (Homo sapiens, UniProt Q99714); item: CC(C)CN(C(=O)c1ccccc1F)c1cccc(N(C)Cc2nccn2C)c1
[A] 57

[Q] Query the reported Max. Effect (%) for 17β-HSD10 (Homo sapiens, UniProt Q99714); item: COc1cccc(-c2ccccc2[C@@H]2CCCN2C(=O)C23CC(C2)C3)c1 (racemic)
[A] 43

[Q] Query the reported Max. Effect (%) for 17β-HSD10 (Homo sapiens, UniProt Q99714); item: Cc1ccsc1C(=O)N1CCC[C@H]1c1ccccc1-c1ccc(Cl)c(C(F)(F)F)c1
[A] 89

[Q] Query the reported Max. Effect (%) for 17β-HSD10 (Homo sapiens, UniProt Q99714); item: CC(C)CN(C(=O)c1ccccc1F)c1cccc(N(C)Cc2cnc[nH]2)c1
[A] 99

[Q] Query the reported Max. Effect (%) for 17β-HSD10 (Homo sapiens, UniProt Q99714); item: CN(Cc1c[nH]cn1)c1cccc(N(CC2CC2)C(=O)c2ccccc2F)c1
[A] 99

The reported measurements were obtained from patent US20260132123A1.
